Reference source: ChEMBL document CHEMBL1201862

- Test system: COLO 205
- Assay Procedure: NCI tumour cell line growth inhibition, 48 h
The source made the active and inactive calls. Cut-off read from the data, not from the text of the source: active = GI50 up to about 1.1 µM and inactive = higher.
Endpoint: GI50

The molecule listed as Cn1c2c(c3ccccc31)C1C(=O)N(c3ccccc3)C(=O)C1CC2 (stereo not drawn) shows GI50 equal to > 303 µM (inactive)

The molecule listed as `COc1ccc(-c2cn3c(nc4ccccc43)c(C)n2)cc1` shows GI50 equal to > 100 µM (inactive)

The molecule listed as `CC(=O)c1ccc(Nc2c3c(nc4ccccc24)CCCC3)cc1` shows GI50 equal to 11.7 µM (inactive)

The molecule listed as `CCOC(=O)CCc1c(C)c2c(OC(C)=O)cc(OC(C)=O)cc2oc1=O` shows GI50 equal to > 100 µM (inactive)

The molecule listed as COc1ccc(C2NCCc3c2[nH]c2ccccc32)cc1 (stereo not drawn) shows GI50 equal to 32.2 µM (inactive)
